# Test system: U-251
# Measurement protocol: Cytotoxicity against Homo sapiens (human) U251 assessed as cell growth at 10 uM after 48 hr by SRB assay relative to control
# Format: functional
# Run parameters: U-251, 48 h, read-out: Activity
Property measured: growth at 10 µM (%)
Only the number, expressed in %, is required.

// solved cases for growth at 10 µM follow
{"Molecule": "CCOC(=O)c1c(Nc2ccc(S(N)(=O)=O)cc2)nnc(-c2ccccc2)c1-c1ccccc1", "Target or test system": "U-251", "Measurement unit": "%", "growth at 10 µM": 95}
{"Molecule": "CCOC(=O)c1c(Nc2ccc(S(=O)(=O)Nc3nccs3)cc2)nnc(-c2ccccc2)c1-c1ccccc1", "Target or test system": "U-251", "Measurement unit": "%", "growth at 10 µM": 98.5}
{"Molecule": "Oc1c(-c2nnc(SCc3ccccc3)o2)sc2nnc(-c3ccccc3)c(-c3ccccc3)c12", "Target or test system": "U-251", "Measurement unit": "%", "growth at 10 µM": 122}
{"Molecule": "CC(=O)Oc1c(C2=NN(C(C)=O)C(c3ccccc3[N+](=O)[O-])O2)sc2nnc(-c3ccccc3)c(-c3ccccc3)c12 (centres undefined)", "Target or test system": "U-251", "Measurement unit": "%", "growth at 10 µM": 80.5}
{"Molecule": "CC(=O)Oc1c(C2=NN(C(C)=O)C(c3ccc(F)cc3)O2)sc2nnc(-c3ccccc3)c(-c3ccccc3)c12 (centres undefined)", "Target or test system": "U-251", "Measurement unit": "%", "growth at 10 µM": 105}

Continue with the molecule presented below.
Task: Give recorded growth at 10 µM. CSc1nnc(-c2sc3nnc(-c4ccccc4)c(-c4ccccc4)c3c2O)o1
Result: 62.9

====

# Test system: NCI-H460
# Measurement protocol: Cytotoxicity against Homo sapiens (human) NCI-H460 assessed as cell growth at 10 uM after 48 hr by SRB assay relative to control
# Type: functional
# Run parameters: NCI-H460, 48 h, read-out: Activity
Property measured: growth at 10 µM (%)
Only the number, expressed in %, is required.

// solved cases for growth at 10 µM follow
{"Smiles text": "CSc1nnc(-c2sc3nnc(-c4ccccc4)c(-c4ccccc4)c3c2O)o1", "Property measured": "growth at 10 µM", "Measurement unit": "%", "Value measured": 56.7}
{"Smiles text": "Oc1c(-c2nnc(-c3ccccc3)o2)sc2nnc(-c3ccccc3)c(-c3ccccc3)c12", "Property measured": "growth at 10 µM", "Measurement unit": "%", "Value measured": 39.8}

Continue with the molecule presented below.
Task: // fetch growth at 10 µM for CC1=NN(C(=O)c2sc3nnc(-c4ccccc4)c(-c4ccccc4)c3c2O)C(=O)C1 ; system: NCI-H460
Result: 52.2

====

# Tested on: BT-549
# Measurement protocol: Cytotoxicity against Homo sapiens (human) BT549 assessed as cell growth at 10 uM after 48 hr by SRB assay relative to control
# Format: functional
# Run parameters: BT-549, 48 h, read-out: Activity
Reported growth at 10 µM values follow for various compounds
Only the number, expressed in %, is required.

// solved cases for growth at 10 µM follow
{"Compound": "Oc1c(-c2nnc(-c3ccc(Cl)cc3)o2)sc2nnc(-c3ccccc3)c(-c3ccccc3)c12", "growth at 10 µM, %": 56}
{"Compound": "Oc1c(-c2n[nH]c(=S)o2)sc2nnc(-c3ccccc3)c(-c3ccccc3)c12", "growth at 10 µM, %": 99.5}

Task: Give recorded growth at 10 µM. Oc1c(-c2nnc(-c3ccccc3)o2)sc2nnc(-c3ccccc3)c(-c3ccccc3)c12
Result: 74.9

Task: Give recorded growth at 10 µM. CCOC(=O)c1c(Nc2ccc(S(=O)(=O)Nc3nccs3)cc2)nnc(-c2ccccc2)c1-c1ccccc1
Result: 98.9

Task: Give recorded growth at 10 µM. Oc1c(-c2nnc(SCc3ccccc3)o2)sc2nnc(-c3ccccc3)c(-c3ccccc3)c12
Result: 107

Task: Give recorded growth at 10 µM. CC(=O)Oc1c(C2=NN(C(C)=O)C(c3ccccc3[N+](=O)[O-])O2)sc2nnc(-c3ccccc3)c(-c3ccccc3)c12 (stereo unspecified)
Result: 89.8

Task: Give recorded growth at 10 µM. CC1=NN(C(=O)c2sc3nnc(-c4ccccc4)c(-c4ccccc4)c3c2O)C(=O)C1
Result: 104

Task: Give recorded growth at 10 µM. CNc1nnc(-c2sc3nnc(-c4ccccc4)c(-c4ccccc4)c3c2O)s1
Result: 101

Task: Give recorded growth at 10 µM. CCOC(=O)c1c(Nc2ccc(S(N)(=O)=O)cc2)nnc(-c2ccccc2)c1-c1ccccc1
Result: 95

Task: Give recorded growth at 10 µM. CC(=O)Oc1c(C2=NN(C(C)=O)C(c3ccc(F)cc3)O2)sc2nnc(-c3ccccc3)c(-c3ccccc3)c12 (stereo unspecified)
Result: 65.3

Task: Give recorded growth at 10 µM. CSc1nnc(-c2sc3nnc(-c4ccccc4)c(-c4ccccc4)c3c2O)o1
Result: 74.1
